Each item that follows carries a reported Binding Signal (fold over 6E7 parental antibody).
Biological target: T1, human TREM2 (human) (UniProt Q9NZC2)
T1 sequence (looked up): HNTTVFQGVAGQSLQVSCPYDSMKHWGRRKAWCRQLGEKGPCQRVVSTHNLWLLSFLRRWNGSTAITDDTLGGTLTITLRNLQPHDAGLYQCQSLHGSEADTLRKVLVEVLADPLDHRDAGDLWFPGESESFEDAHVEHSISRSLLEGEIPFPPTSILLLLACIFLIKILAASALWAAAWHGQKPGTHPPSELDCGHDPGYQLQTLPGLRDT
Experiment: 2nd screen, 2 nM Ab
MEASURED_QUANTITY: Binding Signal (fold over 6E7 parental antibody) (fold)

| BINDER | UNIT | RESULT_VALUE |
| --- | --- | --- |
| 6E7 variant V1 (antibody, V domains shown) VH: EVQLVQSGAEVKKPGESLKISCKGSGYSFTSSWIAWVRQMPGKGLEWMGIIYPGDSDTRYSPSFQGQVTISADKSISTAYLQWSSLKASDTAMYFCARSRTFYYDSSDYFDYWGQGTLVTVSS VL: DIQMTQSPSSVSASVGDRVTITCRASQGISSWLAWYQQKPGKAPKLLIYAASSLTNGVPSRFSGSGSGTDFTLTISSLQPEDFATYFCQQADSYPRTFGQGTKLEIK | fold | 1.29 |
| 6E7 variant V75 (antibody, V domains shown) VH: EVQLVQSGAEVKKPGESLKISCKGSGYSFTSYWIAWVRQMPGKGLEWMGIIYPGDSDTRYSPSFQGQVTISADKSISTAYLQWSSLKASDTAMYFCARGRTFYYDSSDYFDYWGQGTLVTVSS VL: DIQMTQSPSSVSASVGDRVTITCRASQGISSWLAWYQQKPGKAPKLLIYAASSLQAGVPSRFSGSGSGTDFTLTISSLQPEDFATYFCQQADSYPRTFGQGTKLEIK | fold | 3.74 |
| 6E7 variant V4 (antibody, V domains shown) VH: EVQLVQSGAEVKKPGESLKISCKGSGYSFGSYWIAWVRQMPGKGLEWMGIIYPGDSDTRVSPSFQGQVTISADKSISTAYLQWSSLKASDTAMYFCARSRTFYYDSSDYFDYWGQGTLVTVSS VL: DIQMTQSPSSVSASVGDRVTITCRASQGISSWLAWYQQKPGKAPKLLIYAASRLQNGVPSRFSGSGSGTDFTLTISSLQPEDFATYFCQQADSYPRTFGQGTKLEIK | fold | 5.88 |
| 6E7 variant V26 (antibody, V domains shown) VH: EVQLVQSGAEVKKPGESLKISCKGSGYSFTSYWIGWVRQMPGKGLEWMGTIYPGDSDTRYSPSFQGQVTISADKSISTAYLQWSSLKASDTAMYFCARQRTMYYDSSDYFDAWGQGTLVTVSS VL: DIQMTQSPSSVSASVGDRVTITCRASQGISSWLAWYQQKPGKAPKLLIYAASSLQRGVPSRFSGSGSGTDFTLTISSLQPEDFATYFCQQADSYPRTFGQGTKLEIK | fold | 2.83 |
| 6E7 variant V24 (antibody, V domains shown) VH: EVQLVQSGAEVKKPGESLKISCKGSGYSFTSYWIAWVRQMPGKGLEWMGIIYPGDSDVRYSPSFQGQVTISADKSISTAYLQWSSLKASDTAMYFCARSRTFYYDSSDYFDYWGQGTLVTVSS VL: DIQMTQSPSSVSASVGDRVTITCRASQGISSWLAWYQQKPGKAPKLLIYAASSLQKGVPSRFSGSGSGTDFTLTISSLQPEDFATYFCQQADSFPHTFGQGTKLEIK | fold | 1.42 |
